protocolNotes: yeast display, Sf9 membrane polyspecificity reagent, FACS + sequencing; frameworks hold sequencing errors
observedProperty: polyreactivity (PSR sort gate)

[
  {
    "constructSequence": "QVQLVESGGGLVQAGGSLRLSCAASGRNFNQYGMGRYIPAPGKERELVAAIRSGDSTNYADSVKGRFTISRDNAKNTVYLQMNSLKPEDTAVYYCARDRPGDYAGYDYWGQGTQVNVSS",
    "measValue": "low polyreactivity"
  },
  {
    "constructSequence": "QVQLVESGGGLVQAGGSLRLSCAASGRTIGIYARGWYRQAPVKERELVADITIGGSTYYADSVKGRFTISRDNAKNTVFIQINSLKPEDTAVYYCAARNPGYTRTGRRYDSWGQGTQVTVSS",
    "measValue": "low polyreactivity"
  },
  {
    "constructSequence": "QVQLVESGGGLVQAGGSLRLSCAASGITLYQYAMGWYRQAPGKERELVAAISWNGGTTYYADSVKGRFTISRDNAKNNVYLQMNSLKPEDTAVYYCAADGYPYGGPSYYYWGQGTQVTVSS",
    "measValue": "high polyreactivity"
  },
  {
    "constructSequence": "QVQLVESVGGLVQAGGSLRLSCAASGRTFFYNAMGWYRQAPAKERELVAAIDWSGDSTYYADSVKGRFTISRDNAKNTVYLQMNSLKPEDTAVYYCAARRKNRRDYDYYYWGQGTQVTVSS",
    "measValue": "high polyreactivity"
  }
]

As a next step, examine the sequence that follows.
input: Give the value of polyreactivity (PSR sort gate) reported for the following: QVQLVESGGGLVQAGGSLRLSCAASGSTFFYYAMGWSRQEPGKERELVASISSRGGSTYYADSVKGRFTISRDNAKNTVYLQMYSLKPEDTAVYYCAADLWAYGPLWRWSRADYDYWGQGTQVTVSS
output: low polyreactivity
